The reported numbers originate from patent US5470830A.

# target-desc: motilin receptor (rabbit antral smooth muscle membranes) (Oryctolagus cuniculus, UniProt G1T803)
# Construct: from tissue; host or cells: rabbit antral smooth muscle membranes
# Sequence (G1T803 1-400): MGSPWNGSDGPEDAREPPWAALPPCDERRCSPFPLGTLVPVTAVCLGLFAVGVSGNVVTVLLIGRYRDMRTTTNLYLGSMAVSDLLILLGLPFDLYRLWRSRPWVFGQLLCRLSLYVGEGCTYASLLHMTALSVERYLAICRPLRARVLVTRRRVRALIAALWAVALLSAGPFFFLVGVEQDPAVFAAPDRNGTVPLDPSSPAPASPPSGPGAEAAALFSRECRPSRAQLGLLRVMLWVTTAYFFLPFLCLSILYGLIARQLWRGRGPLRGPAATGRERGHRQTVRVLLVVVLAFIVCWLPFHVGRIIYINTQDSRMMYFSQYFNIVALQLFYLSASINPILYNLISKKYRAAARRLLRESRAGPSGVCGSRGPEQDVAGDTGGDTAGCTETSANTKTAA
# assay-comment: Motilin receptor binding affinity: displacement of [125I-Tyr7,Nle13]motilin(porcine)
# run-parameters: negative logarithm of concentration displacing 50% of [125I-Tyr7,Nle13]motilin(porcine) from rabbit antral smooth muscle membranes; read-out: pIC50 (converted)
Where no end group is shown, it is not given here.
readout-label: IC50 (nM)

q: Dear colleague, I am looking for the recorded IC50 of the following substance: H-FLFIFTYGELQRLQ-OH [[Leu^2, Phe^3, Leu^13]pMOT(1-14)]
a: 33.9

q: Dear colleague, I am looking for the recorded IC50 of the following substance: H-FVFLFTYGELQRLQ-OH [[Phe^3, Leu^4, Leu^13]pMOT(1-14)]
a: 3.98

q: Dear colleague, I am looking for the recorded IC50 of the following substance: FVFIFTYGELQR-NH2 [[Phe^3 pMOT(1-12) amide, Bis-trifluoroacetate Salt]
a: 27.5

a. H-FVFIFTYGELQRLQ-OH [[Phe^3, Leu^13]pMOT(1-14)]
b. H-FVFIFTYGELQRLK-NH2 [[Phe^3, Leu^13, Lys^14]pMOT(1-14) amide]
c. H-FVFIFTFGELQRLQ-OH [[Phe^3, Phe^7, Leu^13]pMOT(1-14)]
q: Could you please sort these 3 entries by IC50 from high to low? Note for the reader: the ranking is given by listing the labels in the order requested.
a: c, a, b

a. H-FVFIFTYGELARLQ-OH [[Phe^3, Ala^11, Leu^13]pMOT(1-14)]
b. H-FVLIFTYGELQRLQ-OH [[Leu^3, Leu^13]pMOT(1-14)]
q: Please tell me which of the two, a or b , has the higher reported IC50 value. Returns: label corresponding to the selected item.
a: b
(b: 178 nM, a: 15.8 nM)
